- Experimental system: T1, human CD24 (human, UniProt P25063 27-59, heavily glycosylated, GPI-anchored (as described in the background))
- T1 construct: whole, on cells; Target of all cell-based FACS assays; also called hCD24; Cluster of differentiation 24
- T1 chain (looked up): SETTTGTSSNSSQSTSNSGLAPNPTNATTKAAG
- Procedure details: FACS, 5637 cells
Readout label: FACS MFI
Reply: number alone, nothing else.

### Prompt State, in one line, measured FACS MFI of 73H5-1G2 (antibody, V domains shown, mouse monoclonal antibody) VH: QVQLKQSGPGLVQPSQSLSITCTVSGFSLTNYGVHWIRQSPGKGLEWLGVIWRGGSTDYNAAFMSRLSITKDNSKSQVFFQMNSLQAADTAIYYCANNYGYDCFAYWGQGTLVTVSA VL: DVQITQSPSYLAASPGETITINCRASKSIIKYLAWYQEKPGKTNKLLIYSGSTLQSGIPSRFSGSGSGTDFTLTITSLEPEDFAMYYCQQHNEYPLTFGAGTRLELK
### Response 6360

### Prompt State, in one line, measured FACS MFI of SN3 (antibody, V domains shown) VH: QVQLKESGPGLVAPSQSLSITCTVSGFSLTSYGVHWVRQPPGKGLEWLGVIWAGGSTNYNSALMSRLSISKDNSKSQVFLKMNSLQTDDTAMYYCAVYYGYLFFAYWGQGTLVTVSA VL: ENVLTQSPAIMSASPGEKVTMTCSASSSVSYMHWYQQKSTTSPKLWIYDTSKLASGVPGRFSGSGSGNSYSLTISSMEAEDVATYYCFQGSGYPLTFGGGTKLEIK
### Response 9400

### Prompt State, in one line, measured FACS MFI of 110D4G4 (antibody, V domains shown, mouse monoclonal antibody; also called mAb-110D4G4) VH: EVQLQQSGPGLVKPGASVKISCRASGYLFTGYYMNWVKQSPEKSLEWIGEINPNTGDPRYDQKFKAKATLTVDRSSSTAYMHLKSLTSEDSAVYFCARRDYGTSLDYWGQGTTLTVTS VL: DVQITQSPSYLAASPGETITINCRASKSISKYLAWYQEKPGKTNKLLIYSGSTLQSGIPSRFSGSGSGSDFTLTISSLEPEDFAMYYCQQHNEYPLTFGAGTKLELK
### Response 47100

### Prompt State, in one line, measured FACS MFI of 58F10-1F6 (antibody, V domains shown, mouse monoclonal antibody) VH: EVQLRQSGPELVKPGAAVKISCKASGYSFTGYHMNWVKQSPEKSLEWIGEINPITSGITYNQIFKAKATLTVDKSSSTAYLQLKSLTSEDSAVYYCTRRDYGTSLDYWGQGTTLTVSS VL: DIQMTQITSSLSASLGDRVTITCRASQDISNYLNWYQQKPDGTVKLLIYYTSRLLSGVPSRFSGSGSGTDYSLTISNLEQEDIATYFCQQDHTLPRTFGGGTKLEIR
### Response 34200

### Prompt State, in one line, measured FACS MFI of 71A4F12 (antibody, V domains shown, mouse monoclonal antibody) VH: EVQLQQSGPELVKPGASVKIPCKASGYTFTAYNMDWVKQSHGMSLEWIGDINPNNGDTVYNQNFKGKATLTVDKSSSTAYMELRSLTSEDTAVYYCARRGSYYYGSSHYALDFWGQGTSVSVSS VL: DIQMTQITSSLSASLGNRVTISCRASQDIRNYLNWYQQKPDGTVKLLIYYTSRLLSGVPSRFSGSGSGTDYSLTISNLEQEDIATYFCQQDNSLPRTFGGGTRLEIR
### Response 18600
